Biological target: hemagglutinin (HA) of influenza virus H5N1 A/Vietnam/1194/04 (influenza A virus)
Assay: cell-based or functional assay
Entries and their average neutralization titer values follow.

binder | readout-unit | average neutralization titer
MD2311 (bispecific antibody) EVQLVESGGGLVQAGDSLRLSCAASGPTFGMSAMGWFRQAPGKEREFVAAISGLGNPNYSDDVKGRFTISRENGRNTVYLQMNSLKPEDTAVYYCAQRKVYHVQGGDRPQAYDYWGQGTQVTVSSGGGGSGGGGSEVQLVESGGGLVQPGGSLRLSCAATGFTLENKAIGWFRQTPGSEREGVLCISKSGSWTYYTDSMRGRFTISRDNAENTVYLQMDSLKPEDTAVYYCATTTAGGGLCWDGTTFSRLASSWGQGTQVTVSSGGGGSGGGGSEVQLVESGGGLVQAGDSLRISCAASGRTLSIYSMGWFRQAPGKEREFVATIGWNSGRTFYPDSLKGRFTISRDNARNTLYLQMNNLRPEDTAVYYCAAAKGPLRLSSQADYWGQGTQVTVSS | nM | 12.8
MD2307 (bispecific antibody) EVQLVESGGGLVQPGGSLRLSCAATGFTLENKAIGWFRQTPGSEREGVLCISKSGSWTYYTDSMRGRFTISRDNAENTVYLQMDSLKPEDTAVYYCATTTAGGGLCWDGTTFSRLASSWGQGTQVTVSSGGGGSGGGGSEVQLVESGGGLVQAGDSLRISCAASGRTLSIYSMGWFRQAPGKEREFVATIGWNSGRTFYPDSLKGRFTISRDNARNTLYLQMNNLRPEDTAVYYCAAAKGPLRLSSQADYWGQGTQVTVSSGGGGSGGGGSEVQLVESGGGLVQAGDSLRLSCAASGPTFGMSAMGWFRQAPGKEREFVAAISGLGNPNYSDDVKGRFTISRENGRNTVYLQMNSLKPEDTAVYYCAQRKVYHVQGGDRPQAYDYWGQGTQVTVSS | nM | 21.6
